protocol details: blood-stage malaria parasite viability loss – strain 3D7, DAPI fluorescence, 100 nL, primary screen (AID 1184);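 note: parasites grown inside human red blood cells in medium with human serum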
conditions used: P. falciparum 3D7 growth, 3 d, higher = more signal
Each record here notes measured z-score.
property label: z-score

1) C=CCOC(=O)[C@@H]1[C@H]2C(=O)O[C@H](c3ccccc3)[C@H](c3ccccc3)N2[C@H](c2ccc(OCCOC(=O)[C@H]3C[C@H]4C(=O)N[C@@H](Cc5ccccc5)C(=O)N4[C@H]3c3ccc(O)cc3)cc2)[C@@]12C(=O)Nc1ccc(I)cc12    0.265
2) C=CCC(OC(C)=O)[C@@H]1[C@@H](N(Cc2cc3ccccc3o2)C(=O)c2cccc3ccccc23)c2cc(OCCCO)ccc2N1C(=O)Cc1ccc2ccccc2c1 (some centres undefined)    -1.73
3) CN1C(=O)C2C(C1=O)C1C=C(c3ccc(CO)cc3)C2C(C2CC2)N1Cc1sc2ccccc2c1Cl (centres undefined)    -1.9
4) [N-]=[N+]=NCc1ccccc1[C@@H]1OC(c2ccc(OCCCO)cc2)=N[C@]1(Cc1ccccc1N=[N+]=[N-])C(N)=O    -1.63
5) C=C(COC)C(=O)CC[C@@H](OC(=O)c1ccccc1-c1ccccc1C(=O)O)c1ccc(CO)o1    1.47
6) O=C1C2C=CC(C(O)c3ccc(Br)cc3)N(n3cnnc3)C2C(=O)N1Cc1ccccc1 (centres undefined)    -0.084
7) Cc1ccc(S[C@]2(C(=O)NCC(F)(F)F)CC(=O)N(C3Cc4ccccc4C3)[C@@H]2c2ccc(CO)cc2I)cc1    0.178
8) Cc1ccc(S[C@]2(C(=O)NCCCN(C)C)CC(=O)N(C(C)C)[C@@H]2c2ccc(CO)cc2I)cc1    -0.621
9) O=C1C2C=CC(C(O)c3ccc(B(O)O)cc3)N(Nc3ccc([N+](=O)[O-])cc3)C2C(=O)N1c1ccccc1 (centres undefined)    1.18
10) Cc1ccc(S[C@]2(C(=O)NCC(C)C)CC(=O)N(Cc3ccccc3)[C@@H]2c2ccc(CO)cc2)cc1    -0.894
11) O=C1NC(=O)C2C1C=CC(C(O)c1cccs1)N2Nc1ccccn1 (centres undefined)    0.197
12) Cc1ccc(N2C(=O)c3ccccc3[C@](C)(C(=O)NCCN3CCOCC3)[C@@H]2c2ccc(CO)cc2)nc1    -0.855
13) COCC1=C([C@H](O)CCc2ccccc2)[C@H](CO)[C@@H]2C(=O)N(Cc3ccccc3)C(=O)[C@@H]2C1    -0.54
14) C=CCOC(=O)[C@@H]1[C@H]2C(=O)O[C@H](c3ccccc3)[C@H](c3ccccc3)N2[C@H](c2ccc(OCCOC(=O)[C@H]3C[C@H]4C(=O)N[C@@H](CCCC[N+](C)(C)C)C(=O)N4[C@H]3c3cccc(OCCO)c3)cc2)[C@@]12C(=O)Nc1ccc(I)cc12    -1.82

====

protocol details: growth of efflux-deficient E. coli DRC39 – strain DRC39, OD650, 48 h, E. coli filamentation inducers, primary screen (AID 1179);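 note: screen aims at cell division blockers that make cells filament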
conditions used: E. coli DRC39 delta-acrAB growth, higher = more signal, called active from +8 up or from −8 down
Each record here notes measured z-score.
property label: z-score

1) COC(=O)c1nc2oc1CC[C@@H](CO)NC(=O)N(C)Cc1cn(nn1)C[C@H](Cc1ccccc1)NC2=O    0.72
2) CC1(C)C(=O)C(c2ccccc2)=C2CN3C(=O)N(CCc4ccccc4)C(=O)C3(Cc3ccccc3)C=C21 (stereo not drawn)    0.222
3) CC(C)[C@H]1COC(=O)N1C(=O)[C@H]1[C@@H](c2ccccc2)N(c2ccccc2)O[C@@H]1C    0.703
4) CC(=O)NCCCC[C@@H]1NC(=O)[C@@H]2C[C@H](C(=O)NCCCCCC[N+](C)(C)C)[C@H](c3cccc(OCCO)c3)N2C1=O    -0.42
5) O=C1C2C=CC(C(O)c3ccc(Br)cc3)N(n3cnnc3)C2C(=O)N1Cc1ccccc1 (stereo not drawn)    -1.96
6) CCOC(=O)N1C(c2ccc(OCCCO)cc2)=NC(C(=O)OC)N1C(=O)OCC (stereo not drawn)    1.52
7) [N-]=[N+]=NCc1ccccc1C[C@]1(C(N)=O)N=C(c2ccc(OCCCO)cc2)O[C@H]1c1ccccc1N=[N+]=[N-]    0.116
8) CC1CC/C=C\[C@H]2OC34C=CCN(CCN5CCOCC5)C(=O)[C@H]3N(CCCCCO)C(=O)[C@@H]4C2C(=O)O1 (stereo partly drawn)    0.45

====

protocol details: small molecules captured by biotinylated probe aFST – biochemical, small-molecule microarray, fluorescence 635/667, stem cell growth factor project, primary screen (AID 1086);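 note: score merges 667 nm fluorescence with signal-to-noise of each printed compound spot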
conditions used: higher = more signal
property label: composite z-score

1. CN(C)CCCCNC(=O)[C@@H]1C[C@@H]2C(=O)N[C@@H](CCCCN)C(=O)N2[C@@H]1c1cccc(OCCO)c1    0.145
2. O=C1OCC=C[C@H]2OC34C=CCN(CCN5CCOCC5)C(=O)[C@H]3N(CCCCCCO)C(=O)[C@@H]4[C@@H]12 (some centres not stated)    0.334
3. COCCOC(=O)N1C(=O)[C@@]2(c3cc(C#CCCO)ccc31)[C@H](c1ccc(O)cc1)N1[C@H](c3ccccc3)[C@H](c3ccccc3)OC(=O)[C@H]1[C@@H]2C(=O)N1CCCCCCC1    2
4. COCCOC(=O)N1C(=O)[C@@]2(c3cc(C#Cc4ccc(OC)cc4)ccc31)[C@H](C(N)=O)[C@H]1C(=O)O[C@H](c3ccccc3)[C@H](c3ccccc3)N1[C@@H]2c1ccc(O)cc1    -1.05
5. C=CC[C@]1(C(=O)O)N=C(c2ccc(OCCCO)cc2)O[C@H]1c1ccccc1CN=[N+]=[N-]    0.182
6. C[C@]1(C(=O)NCC(F)(F)F)c2ccccc2C(=O)N(Cc2cc(F)cc(C(F)(F)F)c2)[C@H]1c1ccc(CO)cc1    -0.409
7. O=c1cccc(-c2ccccc2)o1    -0.0103

====

Each record here notes measured z-score.
protocol details: compound effects on lung adenocarcinoma cell viability – A549, calcein-AM fluorescence, 48 h, basal, profiling panel (AID 1162); note: test concentration not given here
conditions used: higher = more signal
property label: z-score

1) CC(=O)NCCCC[C@@H]1NC(=O)[C@@H]2C[C@H](C(=O)NCCCCCC[N+](C)(C)C)[C@H](c3cccc(OCCO)c3)N2C1=O    -0.339
2) C=CCOC(=O)[C@H]1[C@@H]2C(=O)O[C@@H](c3ccccc3)[C@@H](c3ccccc3)N2[C@@H](c2ccc(OCCOC(=O)[C@H]3C[C@H]4C(=O)N[C@@H](CCCC[N+](C)(C)C)C(=O)N4[C@H]3c3ccc(O)cc3)cc2)[C@]12C(=O)Nc1ccccc12    1.6
3) COc1ccc([Si](C)(C)[C@H]2[C@H](CC(=O)N(CCO)Cc3ccccc3)O[C@@]3(C(=O)N(Cc4cccc(N5C(=O)c6cccc7cccc5c67)c4)c4ccccc43)[C@@H]2C)cc1    -0.191

====

protocol details: blockers of DNA damage checkpoint Chk1 activation – imaging, HeLa, hydroxyurea, phospho-Chk1 nuclear intensity, primary screen (AID 1187); note: test concentration not given here
conditions used: hydroxyurea-induced phospho-Chk1 immunofluorescence imaging, higher = more signal
Each record here notes measured z-score.
property label: z-score

1. CCN(CC)c1ccc(N2CC=CC34O[C@@H]5/C=C\CCC(C)OC(=O)C5[C@H]3C(=O)N(CCCCCCO)[C@@H]4C2=O)cc1 (stereo partly drawn)    -0.767
2. COc1ccc(C(=O)Nc2cccc(CN3C(=O)[C@@]4(O[C@@H](CC(=O)N5Cc6ccccc6C[C@H]5CO)[C@H]([Si](C)(C)c5ccc(OC)cc5)[C@H]4C)c4ccccc43)c2)cc1    0.071
3. Cc1ccc(S[C@]2(C(=O)NCCCN(C)C)CC(=O)N(Cc3ccccc3)[C@@H]2c2ccc(CO)cc2)cc1    0.603
4. Cc1c(NC(=O)/C(C#N)=C/C=C/c2ccccc2)c(=O)n(-c2ccccc2)n1C    0.214
5. CN1C(=O)C2C=CC(C(O)C(C)(C)C)N(Nc3ccccc3)C2C1=O (stereo not drawn)    -0.815
6. CC(C)OC(=O)C1=CCC(c2cccc(Cl)c2)O1 (stereo not drawn)    0.0282
7. CO[C@H]1O[C@H](CO)[C@@H](OC(=O)Nc2ccc(C(F)(F)F)cc2)[C@H](OC(=O)Nc2ccccc2)[C@@H]1OC(=O)Nc1ccccc1    0.389
8. O=C1C2C=CC(C(O)c3ccc(-c4ccccc4)s3)N(Nc3ccccc3F)C2C(=O)N1c1ccccc1 (stereo not drawn)    0.414

====

Each record here notes measured composite z-score.
System: Neuregulin-1 EGF-like domain
protocol details: small molecules binding NRG1 EGF domain – biochemical, small-molecule microarray, 635 nm fluorescence, primary screen (AID 1081);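 note: binding of the protein to compounds printed on small-molecule microarray slides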
conditions used: higher = more signal
property label: composite z-score

1. COC(=O)[C@@]1(Cc2ccccc2)[C@H]2c3cc(C(=O)N(C)C)n(Cc4cc(F)c(F)c(F)c4)c3C[C@H]2CN1C(=O)c1ccccc1    1.16
2. C=CC[C@@]1(C(N)=O)N=C(c2ccc(OCCCO)cc2)O[C@@H]1c1ccccc1N=[N+]=[N-]    1.34
3. Cn1c2c(c3ccccc31)C(=O)C1NC2C=CC1(C)C(=O)OCc1ccccc1 (centres undefined)    0.467
4. C=CCC(OC(C)=O)[C@@H]1[C@@H](N(Cc2cc3ccccc3o2)C(=O)c2cccc3ccccc23)c2cc(OCCCO)ccc2N1C(=O)Cc1ccc(OC)cc1 (some centres undefined)    0.111
